# study target: pooled human IgG
assay endpoint: Enzyme Activity Endpoint Assay: Fc (ng/µL)
// units = ng/µL; emit number, no label

Find the recorded Enzyme Activity Endpoint Assay: Fc belonging to PRT-13 (protein) MANQEIRYSEETPYHVTSVWTKGVTPPANFTQGEDVFHAPYKANQGWYDITKTFNGKDDLLCGAATAGNMLHWWFDQNKDQIEAYLKEHPEKQKINFNGEQMFDVKEAIDTKDDQTNSKLFEYFKEKAFPYLSTKHLGVFPDHVLDMFINGYRLSLTNHGPTPVKEGSKDPRGGIFDAVFTRGDQSKLLTSRHDFKEKTLKEISDLIKQELTEGKALALSHTYANVRINHVINLWGADFDSNGNLEAIYVTDSDSNASIGMKKYFVGVNSAGKVAISAKEIEDDNIGAQVLGLFTLSTGQDIWNQTN and report it.
74

Reference source: patent US20250027068
